Recorded values, source patent US20160053277A1.

Assay: Shuffled variant libraries: 14CO2 capturing assay in 384-well format
Details: decarboxylation activity (carbon dioxide released) compared with unmutated backbone protein SEQ ID NO 133 (DDEC0201)
// reported Fold Activity per item
Form rule: numeric answer, no unit written next to it.

{"Molecule": "256 (protein, Dicamba decarboxylase variant) MAQGKVALEEHFAIPETLQDSAGFVPGDYWKELQHRLLDIQDTRLNLMDAHGIETMILSLAAPAVQAIPDRRKAIEIARRANDFLAEECAKRPDRFLAFAALPLQDPDAATEELQRCVNDLGFVGALVNGFSQEGDGQTPLYYDLPQYRPFWGEVEKLDVPFYLHPRNPLPQDSRIYDGHPWLLGPTWAFAQETAVHALRLMASGLFDEHPRLNIILGHMGEGLPYMMYRIDHRIAWVHEPPRYPAKRRFMDYFNENFHITTSGNFRTQTLIDAILEIGADRILFSTDWPFENIDHAADWFNATSIAEADRVKIGRTNARRLFKLDVD", "Numeric result": 1.0}

Next item in the queue.
Requested field: Fold Activity. Item: 143 (protein, Dicamba decarboxylase variant) MAQGKVALEEHFAIPETLQDSAGFVPSEYLKELQHRLLDIQDTRLKLMDAHGIETMILSLAAPAVQAIPDRRKAIEIARRANDFLAEECAKRPDRFLAFAALPMQDVDAATEELQRCVNDLGFVGALVNGFSVEGDGQTPLYYDLPQYRPFWGEVEKLDVPFYLHPRNPLPQDSRIYDGHPWLLGPTWAFAQETAVHALRLMASGLFDEHPRLNIILGHMGEGLPYMMYRIDHRIAWVHEPPRYPAKRRFMDYFNENFHITTSGNFRTQTLIDAILEIGADRILFSTDWPFENIDHAADWFNATSIAEADRVKIGRTNARRLFKLDGD 1.3
